# Experimental System: DNA-PK (Homo sapiens (Human), UniProt P78527)
# Protocol Notes: DNA-PK Enzyme-Linked Immunosorbent Assay (phosphorylation of GST-p53 (1-101) peptide)
# Format: biochemical
# Measurement Setup: ELISA, ATP 20 μM
pIC50: −log10 of the molar value. Where a name gives a salt, the structure may show the parent alone.
Reported Property: pIC50

Use the examples below as a reference point.
[
  {
    "Compound": "COC1CCCN(CCCOc2ncc(-c3ccc4ncc5c(c4c3)C3(CCC3)C(=O)N5C)cc2NS(C)(=O)=O)C1 (stereo not shown)",
    "pIC50": "9.00 to 9.30"
  },
  {
    "Compound": "CN(C)CCCOc1ncc(-c2ccc3ncc4c(c3c2)C2(CC(F)C2)C(=O)N4C)cc1NS(C)(=O)=O (stereo not shown)",
    "pIC50": "7.00 to 9.00"
  },
  {
    "Compound": "CN(C)CCCOc1ccc(-c2ccc3ncc4c(c3c2)C2(CC2)C(=O)N4C)cc1NS(=O)(=O)c1cccc(F)c1",
    "pIC50": "7.00 to 9.00"
  },
  {
    "Compound": "CN(C)CCCOc1c(F)cc(-c2ccc3ncc4c(c3c2)C2(CC2)C(=O)N4C)cc1NS(=O)(=O)c1ccccc1",
    "pIC50": "7.00 to 9.00"
  },
  {
    "Compound": "CN(C)CCCOc1ncc(-c2ccc3ncc4c(c3c2)C2(CCC2)C(=O)N4)cc1NS(C)(=O)=O",
    "pIC50": "7.00 to 9.00"
  },
  {
    "Compound": "CN(C)CCCOc1ncc(-c2ccc3ncc4c(c3c2)C2(CCC2)C(=O)N4C)cc1NS(=O)(=O)c1ccc(C(F)(F)F)cc1 [Example 186, hydrochloride]",
    "pIC50": "7.00 to 9.00"
  },
  {
    "Compound": "CN(C)CCCOc1ncc(-c2ccc3ncc4c(c3c2)C2(CCC2)C(=O)N4C)cc1NS(=O)(=O)c1ccc(C#N)nc1 [Example 147, hydrochloride]",
    "pIC50": "9.00 to 9.30"
  },
  {
    "Compound": "Cc1cc(S(=O)(=O)Nc2cc(-c3ccc4ncc5c(c4c3)C3(CCC3)C(=O)N5C)cnc2OCCCN2CCCCC2)sn1 [Example 194, hydrochloride]",
    "pIC50": "> 9.30"
  }
]

Go through the list and state pIC50 for each entry.
1. CN1CCCC(COc2ncc(-c3ccc4ncc5c(c4c3)C3(CC3)C(=O)N5C)cc2NS(=O)(=O)c2ccccc2)C1 (stereo not shown)
2. CN(C)CCCOc1ncc(-c2ccc3ncc4c(c3c2)C2(CCC2)C(=O)N4C)cc1NS(=O)(=O)c1cc(F)cc(C(F)(F)F)c1 [Example 156, hydrochloride]
3. CN(C)CCCOc1ncc(-c2ccc3ncc4c(c3c2)C2(CCCC2)C(=O)N4C)cc1NS(=O)(=O)c1ccccc1
4. COc1cccc(S(=O)(=O)Nc2cc(-c3ccc4ncc5c(c4c3)C3(CC3)C(=O)N5C)cnc2OCCCN(C)C)c1
5. CN1C(=O)C2(CC2)c2c1cnc1ccc(-c3cnc(OCCCN4CCCC4)c(NS(=O)(=O)c4ccccc4)c3)cc21

1: 7.00 to 9.00; 2: 7.00 to 9.00; 3: 7.00 to 9.00; 4: 7.00 to 9.00; 5: > 9.30

All values here come from patent US12187742B2.
